target or system: Alpha amylase (Homo sapiens)
Sequence (P0DUB6 whole entry): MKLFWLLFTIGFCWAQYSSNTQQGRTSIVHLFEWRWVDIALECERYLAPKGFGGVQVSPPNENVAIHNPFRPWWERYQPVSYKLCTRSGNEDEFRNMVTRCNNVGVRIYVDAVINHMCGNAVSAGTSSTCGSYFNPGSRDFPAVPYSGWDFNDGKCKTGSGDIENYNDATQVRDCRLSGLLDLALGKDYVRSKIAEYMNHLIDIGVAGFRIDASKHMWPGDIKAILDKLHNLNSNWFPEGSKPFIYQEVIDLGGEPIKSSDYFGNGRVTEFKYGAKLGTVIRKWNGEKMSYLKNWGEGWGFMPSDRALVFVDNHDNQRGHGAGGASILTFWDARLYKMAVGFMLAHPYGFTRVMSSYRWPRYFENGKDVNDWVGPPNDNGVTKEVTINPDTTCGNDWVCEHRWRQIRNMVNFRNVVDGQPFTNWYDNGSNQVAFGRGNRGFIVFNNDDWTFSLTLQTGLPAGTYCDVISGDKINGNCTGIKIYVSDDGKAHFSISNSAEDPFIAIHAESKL
experiment: Inhibition of alpha-amylase (unknown origin) using starch as substrate after 30 mins by spectrophotometer analysis
value type: IC50

>>> result("CCOC(=O)c1c(-c2ccccc2)nn(-c2ccccc2)c1Cn1c(Cl)nc2ccccc21")
"10 µg/mL"
>>> result("CCOC(=O)c1c(-c2ccccc2)nn(-c2ccccc2)c1Cn1c(S)nc2ccc(OC(F)F)cc21")
"10 µg/mL"
>>> result("CCOC(=O)c1c(-c2ccccc2)nn(-c2ccccc2)c1COc1ccccc1C=O")
"40 µg/mL"
>>> result("CCOC(=O)c1c(-c2ccccc2)nn(-c2ccccc2)c1COc1cc(OC)c(C=O)c(OC)c1")
"40 µg/mL"
>>> result("CCOC(=O)c1c(-c2ccccc2)nn(-c2ccccc2)c1Cn1cnc2ccccc21")
"35 µg/mL"
>>> result("CCOC(=O)c1c(-c2ccccc2)nn(-c2ccccc2)c1Cn1cnc2cc([N+](=O)[O-])ccc21")
"30 µg/mL"
>>> result("CCOC(=O)c1c(-c2ccccc2)nn(-c2ccccc2)c1COc1ccc(C=O)cc1")
"60 µg/mL"
>>> result("CCOC(=O)c1c(-c2ccccc2)nn(-c2ccccc2)c1Cn1cnc2cc(C)ccc21")
"45 µg/mL"
>>> result("CCOC(=O)c1c(-c2ccccc2)nn(-c2ccccc2)c1Cn1c(S)nc2ccccc21")
"40 µg/mL"
>>> result("CCOC(=O)c1c(-c2ccccc2)nn(-c2ccccc2)c1COCc1c(-c2ccc(F)cc2)nc(N(C)S(C)(=O)=O)nc1C(C)C")
"15 µg/mL"
>>> result("CCOC(=O)c1c(-c2ccccc2)nn(-c2ccccc2)c1COc1ccc(C=O)cc1OC")
"60 µg/mL"
>>> result("CCOC(=O)c1c(-c2ccccc2)nn(-c2ccccc2)c1COCc1ccccc1")
"45 µg/mL"

---

Test system: Klebsiella pneumoniae
experiment: Antibacterial activity against Klebsiella pneumoniae MTCC 3384 assessed as concentration required to completely destroy test microorganisms after 24 hrs
Format: functional
protocol conditions: MTCC 3384, 24 h
value type: MBC (µg/mL)

>>> numeric_readout("CN(C)[C@@H]1C(O)=C(C(N)=O)C(=O)[C@@]2(O)C(O)=C3C(=O)c4c(O)cccc4[C@@](C)(O)[C@H]3C[C@@H]12")
120
>>> numeric_readout("CCOC(=O)c1c(-c2ccccc2)nn(-c2ccccc2)c1COCc1ccccc1")
230
>>> numeric_readout("CCOC(=O)c1c(-c2ccccc2)nn(-c2ccccc2)c1Cn1cnc2cc([N+](=O)[O-])ccc21")
185
>>> numeric_readout("CCOC(=O)c1c(-c2ccccc2)nn(-c2ccccc2)c1COc1ccc(C=O)cc1")
230

---

Tested on: Staphylococcus aureus
experiment: Antibacterial activity against Staphylococcus aureus MTCC 96 after 24 hrs by microdilution method
Type: functional
protocol conditions: MTCC 96, 24 h
value type: MIC (µg/mL)

>>> numeric_readout("CCOC(=O)c1c(-c2ccccc2)nn(-c2ccccc2)c1COc1cc(OC)c(C=O)c(OC)c1")
40
>>> numeric_readout("CCOC(=O)c1c(-c2ccccc2)nn(-c2ccccc2)c1Cn1cnc2cc(C)ccc21")
45
>>> numeric_readout("CCOC(=O)c1c(-c2ccccc2)nn(-c2ccccc2)c1Cn1cnc2ccccc21")
55
>>> numeric_readout("CCOC(=O)c1c(-c2ccccc2)nn(-c2ccccc2)c1COCc1c(-c2ccc(F)cc2)nc(N(C)S(C)(=O)=O)nc1C(C)C")
40
>>> numeric_readout("CCOC(=O)c1c(-c2ccccc2)nn(-c2ccccc2)c1COc1ccc(C=O)cc1")
40

---

Attribute: IC50
experiment: Inhibition of alpha-glucosidase (unknown origin) using p-nitrophenol glycoside as substrate after 30 mins by colorimetric analysis
Parameters: species or system Homo sapiens
value type: IC50 (µg/mL)

>>> numeric_readout("CCOC(=O)c1c(-c2ccccc2)nn(-c2ccccc2)c1COc1ccc(C=O)cc1OC")
70
>>> numeric_readout("CCOC(=O)c1c(-c2ccccc2)nn(-c2ccccc2)c1Cn1c(Cl)nc2ccccc21")
20
>>> numeric_readout("CCOC(=O)c1c(-c2ccccc2)nn(-c2ccccc2)c1Cn1c(S)nc2ccccc21")
45
>>> numeric_readout("CCOC(=O)c1c(-c2ccccc2)nn(-c2ccccc2)c1COc1cc(OC)c(C=O)c(OC)c1")
35
>>> numeric_readout("CCOC(=O)c1c(-c2ccccc2)nn(-c2ccccc2)c1Cn1cnc2cc(C)ccc21")
45
>>> numeric_readout("CCOC(=O)c1c(-c2ccccc2)nn(-c2ccccc2)c1Cn1cnc2ccccc21")
30
>>> numeric_readout("CCOC(=O)c1c(-c2ccccc2)nn(-c2ccccc2)c1COc1ccccc1C=O")
40
>>> numeric_readout("CCOC(=O)c1c(-c2ccccc2)nn(-c2ccccc2)c1COCc1ccccc1")
45

---

Test system: Klebsiella pneumoniae
experiment: Antibacterial activity against Klebsiella pneumoniae MTCC 3384 after 24 hrs by microdilution method
Assay type: functional
protocol conditions: MTCC 3384, 24 h
value type: MIC

>>> result("CCOC(=O)c1c(-c2ccccc2)nn(-c2ccccc2)c1Cn1cnc2ccccc21")
"40 µg/mL"
>>> result("CCOC(=O)c1c(-c2ccccc2)nn(-c2ccccc2)c1COc1ccccc1C=O")
"85 µg/mL"
>>> result("CCOC(=O)c1c(-c2ccccc2)nn(-c2ccccc2)c1Cn1c(Cl)nc2ccccc21")
"30 µg/mL"
>>> result("CN(C)[C@@H]1C(O)=C(C(N)=O)C(=O)[C@@]2(O)C(O)=C3C(=O)c4c(O)cccc4[C@@](C)(O)[C@H]3C[C@@H]12")
"8 µg/mL"

---

Test system: Staphylococcus aureus
experiment: Antibacterial activity against Staphylococcus aureus MTCC 96 at 50 ug/ml after 24 hrs by disc diffusion method
Format: functional
protocol conditions: MTCC 96, 24 h, read-out: IZ
Attribute: zone of inhibition at 50 µg/mL
value type: zone of inhibition at 50 µg/mL (mm)

>>> numeric_readout("CCOC(=O)c1c(-c2ccccc2)nn(-c2ccccc2)c1COc1ccc(C=O)cc1OC")
2
>>> numeric_readout("CCOC(=O)c1c(-c2ccccc2)nn(-c2ccccc2)c1COc1cc(OC)c(C=O)c(OC)c1")
8
>>> numeric_readout("CCOC(=O)c1c(-c2ccccc2)nn(-c2ccccc2)c1COCc1c(-c2ccc(F)cc2)nc(N(C)S(C)(=O)=O)nc1C(C)C")
6
>>> numeric_readout("CCOC(=O)c1c(-c2ccccc2)nn(-c2ccccc2)c1COc1ccccc1C=O")
2
>>> numeric_readout("CCOC(=O)c1c(-c2ccccc2)nn(-c2ccccc2)c1Cn1cnc2cc(C)ccc21")
6
>>> numeric_readout("CN(C)[C@@H]1C(O)=C(C(N)=O)C(=O)[C@@]2(O)C(O)=C3C(=O)c4c(O)cccc4[C@@](C)(O)[C@H]3C[C@@H]12 [TETRACYCLINE]")
10
>>> numeric_readout("CCOC(=O)c1c(-c2ccccc2)nn(-c2ccccc2)c1Cn1cnc2cc([N+](=O)[O-])ccc21")
6
>>> numeric_readout("CCOC(=O)c1c(-c2ccccc2)nn(-c2ccccc2)c1COc1ccc(C=O)cc1")
2
>>> numeric_readout("CCOC(=O)c1c(-c2ccccc2)nn(-c2ccccc2)c1Cn1c(Cl)nc2ccccc21")
9

---

experiment: Inhibition of alpha-glucosidase (unknown origin) using p-nitrophenol glycoside as substrate after 30 mins by colorimetric analysis
Design: species or system Homo sapiens
Attribute: IC50
value type: IC50

>>> result("CCOC(=O)c1c(-c2ccccc2)nn(-c2ccccc2)c1Cn1c(S)nc2ccc(OC(F)F)cc21")
"15 µg/mL"
>>> result("CCOC(=O)c1c(-c2ccccc2)nn(-c2ccccc2)c1COCc1c(-c2ccc(F)cc2)nc(N(C)S(C)(=O)=O)nc1C(C)C")
"25 µg/mL"
>>> result("CCOC(=O)c1c(-c2ccccc2)nn(-c2ccccc2)c1Cn1cnc2cc([N+](=O)[O-])ccc21")
"30 µg/mL"
>>> result("CCOC(=O)c1c(-c2ccccc2)nn(-c2ccccc2)c1COc1ccc(C=O)cc1")
"65 µg/mL"
